Numbers sourced from patent EP1243581A1.

system-tested: AGE-BSA (Bos taurus, UniProt P02769)
Construct: Bovine serum albumin (fraction V) (BSA); from tissue; host or cells: bovine serum (fraction V albumin)
Sequence (P02769 25-607): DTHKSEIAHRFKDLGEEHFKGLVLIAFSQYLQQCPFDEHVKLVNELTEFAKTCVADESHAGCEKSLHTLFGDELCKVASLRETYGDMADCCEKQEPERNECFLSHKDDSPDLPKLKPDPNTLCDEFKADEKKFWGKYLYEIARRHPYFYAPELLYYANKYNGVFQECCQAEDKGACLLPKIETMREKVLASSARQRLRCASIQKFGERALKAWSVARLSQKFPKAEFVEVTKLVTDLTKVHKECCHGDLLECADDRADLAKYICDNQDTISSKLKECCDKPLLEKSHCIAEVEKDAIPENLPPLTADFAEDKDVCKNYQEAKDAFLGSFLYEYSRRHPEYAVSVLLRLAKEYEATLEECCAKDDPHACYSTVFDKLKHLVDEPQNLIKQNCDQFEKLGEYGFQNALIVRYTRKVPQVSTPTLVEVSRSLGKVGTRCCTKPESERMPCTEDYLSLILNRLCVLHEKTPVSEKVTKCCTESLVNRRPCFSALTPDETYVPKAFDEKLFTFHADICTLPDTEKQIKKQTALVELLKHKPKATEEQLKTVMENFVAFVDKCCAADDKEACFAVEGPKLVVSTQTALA
experiment-description: In-vitro screening for AGE-breaking activity (ELISA on 16 weeks AGE-BSA)
Type: biochemical, bovine
conditions-used: read-out: % Breakage
Quick rule for you: inhibition at 10000 µM at 20% or higher means t, lower means f.

Check out these entries, answers already filled in.
{"smiles-repr": "CS(=O)(=O)NNC(=O)c1ccc[n+](CC(=O)N2CCC(Cc3ccccc3)CC2)c1", "label": "t"}
{"smiles-repr": "Cc1ccc(C(=O)C[n+]2cccc(C(=O)NNS(C)(=O)=O)c2)s1", "label": "t"}
{"smiles-repr": "COCCNC(=O)c1ccc[n+](CC(=O)NC2CC2)c1", "label": "f"}
{"smiles-repr": "CC(C)NC(=O)C[n+]1cccc(C(=O)NNS(C)(=O)=O)c1", "label": "f"}
{"smiles-repr": "CS(=O)(=O)NNC(=O)c1ccc[n+](CC(=O)c2cc([N+](=O)[O-])cs2)c1", "label": "t"}
{"smiles-repr": "O=C(C[n+]1ccc(C(=O)NCCOC(=O)c2ccccc2)cc1)Nc1ccccc1", "label": "f"}

Then this compound:
inhibition at 10000 µM >= 20% for `CS(=O)(=O)NNC(=O)c1ccc[n+](CC(=O)c2ccc(Cl)s2)c1` ? t
